Cited source: the supplement of paper PMC8024199

# System: Ba/F3 P210-BCR-ABL1 RUNX1-/mut (mouse)
# TEST SUMMARY: drug sensitivity score (DSS) (DSS score); higher = more sensitive (stronger growth inhibition); extreme values may be limits of the assay
Where drug sensitivity score equals or exceeds 2, the correct label is True; where it does not, the label is False.

-- ask State whether the measured drug sensitivity score reaches 2, counting equality as reaching it, for CCS(=O)(=O)N1CC(CC#N)(n2cc(-c3ncnc4[nH]ccc34)cn2)C1
-- reply False

###

drug sensitivity score reference
# System: Ly-BP RUNX1 p.R204Q
# TEST SUMMARY: drug sensitivity score (DSS) (DSS score); higher = more sensitive (stronger growth inhibition); extreme values may be limits of the assay
Write the value as a bare number.

{"columns": ["COMPOUND", "SYSTEM NAME", "drug sensitivity score"],
 "data": [
  ["Cc1c(N)nc([C@H](CC(N)=O)NC[C@H](N)C(N)=O)nc1C(=O)N[C@H](C(=O)N[C@H](C)[C@@H](O)[C@H](C)C(=O)N[C@H](C(=O)NCCc1nc(-c2nc(C(=O)NCCC[S+](C)C)cs2)cs1)[C@@H](C)O)[C@@H](OC1OC(CO)C(O)C(O)C1OC1OC(CO)C(O)C(OC(N)=O)C1O)c1cnc[nH]1 (stereo partly specified) [Bleomycin]", "Ly-BP RUNX1 p.R204Q", 9.34],
  ["N#Cc1ccc(C(c2ccc(C#N)cc2)n2cncn2)cc1 [Letrozole]", "Ly-BP RUNX1 p.R204Q", 0],
  ["CNCc1ccc(-c2[nH]c3cc(F)cc4c3c2CCNC4=O)cc1 [Rucaparib]", "Ly-BP RUNX1 p.R204Q", 0],
  ["c1ccc2c(CCNc3ccc(Nc4ccncc4)cc3)c[nH]c2c1 [Serdemetan]", "Ly-BP RUNX1 p.R204Q", 0.527],
  ["CN[C@@H]1C[C@H]2O[C@@](C)([C@@H]1OC)n1c3ccccc3c3c4c(c5c6ccccc6n2c5c31)C(=O)N[C@H]4O [UCN-01]", "Ly-BP RUNX1 p.R204Q", 2.27]
]}

In the following, a different compound is considered.
-- ask Input CO[C@@H](C(=O)N1Cc2[nH]nc(NC(=O)c3ccc(N4CCN(C)CC4)cc3)c2C1)c1ccccc1 [Danusertib] , output reported drug sensitivity score.
-- reply 21.4

###

Measured drug sensitivity score accompanies every entry in the list below.
# System: Ly-BP RUNX1 p.R204Q
# TEST SUMMARY: drug sensitivity score (DSS) (DSS score); higher = more sensitive (stronger growth inhibition); extreme values may be limits of the assay

Record excerpt, results attached:
{"columns": ["STRUCTURE", "OBS VALUE"],
 "data": [
  ["C[C@]1(O)C[C@@H](c2nc(-c3ccc4ccc(-c5ccccc5)nc4c3)c3c(N)nccn32)C1", 4.78],
  ["CCc1c2c(nc3ccc(OC(=O)N4CCC(N5CCCCC5)CC4)cc13)-c1cc3c(c(=O)n1C2)COC(=O)[C@]3(O)CC", 7.87]
]}

-- ask Provide only the value of recorded drug sensitivity score for Cc1[nH]c2ccccc2c1CCNCc1ccc(/C=C/C(=O)NO)cc1
-- reply 30.2

-- ask Consider the compound COc1ccc(-c2ccc3c(N4CCOC[C@@H]4C)nc(N4CCOC[C@@H]4C)nc3n2)cc1CO . State its measured drug sensitivity score.
-- reply 25.3

-- ask Identify measured drug sensitivity score corresponding to CC1=C(/C=C/C(C)=C/C=C/C(C)=C/C(=O)O)C(C)(C)CCC1
-- reply 4.61

-- ask Identify drug sensitivity score associated with the compound COc1cc(OC2CCN(C)CC2)ccc1Nc1ncc2c(n1)n(C1CCCC1)c(=O)n2C
-- reply 0.793

-- ask Read the entry COc1cccc2c1C(=O)c1c(O)c3c(c(O)c1C2=O)C[C@@](O)(C(C)=O)C[C@@H]3O[C@H]1C[C@H](N)[C@H](O)[C@H](C)O1 and write its reported drug sensitivity score.
-- reply 10.6
